biological target: BRD4 BD2 (Homo sapiens, UniProt O60885); test: AlphaScreen binding assay, BRD4 Bromodomain 2
Reported metric: IC50

[[record]]
molecule = "CC(=O)N1c2ccccc2N(C(=O)c2ccc3c(c2)OCO3)C[C@@H]1C [Example I-701]"
assayed_target = "BRD4 BD2 (Homo sapiens, UniProt O60885)"
result = "> 500 nM"

[[record]]
molecule = "COc1cc(C(=O)N2C[C@H](C)N(C(C)=O)c3ccccc32)nc2ccccc12 [Example I-753]"
assayed_target = "BRD4 BD2 (Homo sapiens, UniProt O60885)"
result = "> 500 nM"

[[record]]
molecule = "COc1cc(CN2C[C@H](C)N(C(C)=O)c3ccccc32)cc(OC)c1 [Example I-902]"
assayed_target = "BRD4 BD2 (Homo sapiens, UniProt O60885)"
result = "> 500 nM"

[[record]]
molecule = "CC(=O)N1c2ccccc2N(S(=O)(=O)c2ccn(C)n2)C[C@@H]1C [Example I-933]"
assayed_target = "BRD4 BD2 (Homo sapiens, UniProt O60885)"
result = "> 500 nM"

[[record]]
molecule = "CCS(=O)(=O)Nc1cccc(-c2ccc3c(c2)N(C(=O)c2ccco2)C[C@H](C)N3C(C)=O)c1 [Example I-876]"
assayed_target = "BRD4 BD2 (Homo sapiens, UniProt O60885)"
result = "< 50 nM"

[[record]]
molecule = "CC(=O)N1c2ccc(-c3cnn(Cc4cc(C)on4)c3)cc2N(C(=O)C2CC2)C[C@@H]1C [Example I-669]"
assayed_target = "BRD4 BD2 (Homo sapiens, UniProt O60885)"
result = "50 to 500 nM"

[[record]]
molecule = "CC(=O)N1c2ccc(-c3cccc(S(N)(=O)=O)c3)cc2N(C(=O)OC2CCCCC2)C[C@@H]1C [Example I-1219]"
assayed_target = "BRD4 BD2 (Homo sapiens, UniProt O60885)"
result = "< 50 nM"

[[record]]
molecule = "CC(=O)N1c2ccc(-c3cnn(CC4CC4)c3)cc2N(C(=O)OC(C)C)C[C@@H]1C [Example I-308]"
assayed_target = "BRD4 BD2 (Homo sapiens, UniProt O60885)"
result = "50 to 500 nM"

[[record]]
molecule = "CC(=O)N1c2ccc(-c3ccc4c(c3)n(C)c(=O)n4C)cc2N(C(=O)c2ccco2)C[C@@H]1C [Example I-395]"
assayed_target = "BRD4 BD2 (Homo sapiens, UniProt O60885)"
result = "< 50 nM"

[[record]]
molecule = "CC(=O)N1c2ccc(-c3ccc(S(C)(=O)=O)cc3)cc2N(C(=O)c2csnn2)C[C@@H]1C [Example I-783]"
assayed_target = "BRD4 BD2 (Homo sapiens, UniProt O60885)"
result = "> 500 nM"

[[record]]
molecule = "CC(=O)N1c2ccc(-c3ccc(S(=O)(=O)N4CCOCC4)cc3)cc2N(C(=O)c2ccco2)C[C@@H]1C [Example I-275]"
assayed_target = "BRD4 BD2 (Homo sapiens, UniProt O60885)"
result = "50 to 500 nM"

[[record]]
molecule = "COC(=O)N1c2ccc(-c3cnn(CCN4CCOCC4)c3)cc2N(C(=O)OC(C)C)C[C@@H]1C [Example I-321]"
assayed_target = "BRD4 BD2 (Homo sapiens, UniProt O60885)"
result = "50 to 500 nM"

[[record]]
molecule = "CC(=O)N1c2ccc(-c3ccc(S(=O)(=O)N(C)C)cc3)cc2N(C(=O)OC(C)C)C[C@@H]1C [Example I-1126]"
assayed_target = "BRD4 BD2 (Homo sapiens, UniProt O60885)"
result = "50 to 500 nM"

[[record]]
molecule = "CC(=O)N1c2ccc(-c3cnn(C4CC4)c3)cc2N(c2ncc3ccccc3n2)C[C@@H]1C [Example I-51]"
assayed_target = "BRD4 BD2 (Homo sapiens, UniProt O60885)"
result = "50 to 500 nM"

[[record]]
molecule = "CC(=O)N1c2ccc(-c3cnn(C4CC4)c3)cc2N(C(=O)Oc2cccc(F)c2)C[C@@H]1C [Example I-502]"
assayed_target = "BRD4 BD2 (Homo sapiens, UniProt O60885)"
result = "50 to 500 nM"

